system: HL-60(TB) leukemia; assay: NCI-60 one-dose screen, 48 h; conditions: 10 µM unless noted
The panel holds about 83,000 compounds, 20% with a hit somewhere; the sample as a whole holds those more often. Calls of active or inactive are those of the source. The calls were made as follows: active = growth percent below 10; inactive = the rest.
The reply should name one outcome from active, inactive

Some solved cases for reference:
compound	label-value
COc1cc(-c2ccc(/C=N/NC(=O)c3[nH]c4ccc(Br)cc4c3-c3ccccc3)s2)cc(OC)c1OC	inactive
CCCCCCCCCc1ccc(C(=O)Nc2cc(C)ccc2C(=O)OC)cc1	inactive
COc1ccc(NCc2cn(-c3ccc(C(=O)O)cc3)nc2-c2ccc(F)cc2)cc1C(F)(F)F	inactive
CC(C)C(C(=O)O)n1c(O)c(/C=C2/C=c3cc4c(cc3=NC2=O)OCO4)sc1=S (centres undefined)	inactive

Q) Could you kindly confirm the outcome this assay logged for "COc1ccc(-c2ccnc(SCc3cc4cc(Cl)ccc4[nH]c3=O)n2)cc1" ?
A) inactive

Q) Could you kindly confirm the outcome this assay logged for COc1c(F)ccc(C(=O)Nc2ccc3nc(NC(=O)C4CCCN(S(=O)(=O)c5cccc(Br)c5)C4)sc3c2)c1F (centres undefined) ?
A) inactive

Q) Could you kindly confirm the outcome this assay logged for "Cc1[nH]nc2ccc3nc(-c4cn[nH]c4C(F)(F)F)c4c(c3c12)CCCC4" ?
A) active

Q) Could you kindly confirm the outcome this assay logged for "CC(C)C[C@H](NC(=O)CNC(=O)C[C@H]1O[C@@H]2OC3(C)CC[C@H]4[C@H](C)CC[C@@H]([C@H]1C)[C@@]24O3)B(O)O" ?
A) active

Q) Could you kindly confirm the outcome this assay logged for "Cn1cc(-c2nnc(N)nc2-c2c[nH]c3ccccc23)c2cc(Br)cnc21" ?
A) inactive

---

tested on: HCT-116 colon; assay: NCI-60 one-dose screen, 48 h (100 = growth as untreated, 0 = no growth, -100 = all killed); conditions: 10 µM
The panel holds about 83,000 compounds, 20% with a hit somewhere; the sample as a whole holds those more often.
reported-metric: growth (%)
Quick reminder: number only, in %, skip the unit.

In the examples that follow, each entry is paired with its recorded growth.
N#C[Se]CC(=O)Nc1cccc(C(F)(F)F)c1 -66.8
O=C(/C=C/c1ccc(Cl)cc1Cl)c1nc2ccccc2n1Cc1ccc(F)cc1 7.22
C=CC[Se]C(=O)c1cncc(C(=O)[Se]CC=C)c1 -86.4
CC(C)C[C@H](NC(=O)CNC(=O)C[C@H]1O[C@@H]2OC3(C)CC[C@H]4[C@H](C)CC[C@@H]([C@H]1C)[C@@]24OO3)B(O)O -72.3

Please find the next molecule below.
Q) Complete the entry with growth for "COc1cc2cc(C(=O)N3C[C@@H](CCl)c4c3cc(OC(=O)N3CCN(C)[C@@H]5CSSC[C@H]53)c3ccccc43)[nH]c2c(OC)c1OC"
A) -23.6

---

Tested on: KM12 colon
Assay: NCI-60 one-dose screen, 48 h (100 = growth as untreated, 0 = no growth, -100 = all killed)
Details: 10 µM
Method: Growth inhibition of the KM12 human tumor cell line is measured as a screen for anti-cancer activity. Cells are grown in 96 well plates and exposed to the test compound for 48 hours. Compounds are tested at a single concentration, which is 10^-5 M for most compounds. The reported endpoint is percent growth (GI% or GIPRCNT), where numbers from 0 - 100% represent growth inhibition, and numbers from -100% - 0 represent cell death. For example, a value of 40 represents 60% growth inhibition. […]
This is part of a sample that, as a whole, favours compounds with a hit. Of some 83,000 tested, about 20% had one in any assay.
Note to self: use MET only for growth readings below -30%; a reading exactly at -30% still gets NOT MET.

Some solved cases for reference:
molecule	tested-on	label-value
O=C(/C=C/c1ccc(Br)cc1)c1nc2ccccc2n1Cc1ccc(Br)cc1	KM12 colon	NOT MET
O=C(/C=C/c1ccccc1)c1nc2ccccc2n1Cc1ccc(Br)cc1	KM12 colon	MET
O=C([Se]C1C=CCCC1)c1ccc(C(=O)[Se]C2C=CCCC2)s1 (stereo not given)	KM12 colon	MET
C[C@H]1[C@@H](CC(=O)N[C@@H](Cc2coc3ccccc23)B(O)O)O[C@@H]2OC3(C)CC[C@H]4[C@H](C)CC[C@@H]1[C@@]24OO3	KM12 colon	NOT MET

Attention now turns to another entry.
Q) Problem: For the molecule "C=CC[Se]C(=O)c1ccc(C(=O)[Se]CC=C)s1" , is growth under -30%?
A) MET

---

Consider the following compounds and their measured growth readings.
Test system: BT-549 breast
Assay: NCI-60 one-dose screen, 48 h (100 = growth as untreated, 0 = no growth, -100 = all killed)
Conditions: 10 µM
Description: Growth inhibition of the BT-549 human tumor cell line is measured as a screen for anti-cancer activity. Cells are grown in 96 well plates and exposed to the test compound for 48 hours. Compounds are tested at a single concentration, which is 10^-5 M for most compounds. The reported endpoint is percent growth (GI% or GIPRCNT), where numbers from 0 - 100% represent growth inhibition, and numbers from -100% - 0 represent cell death. For example, a value of 40 represents 60% growth inhibition. […]
Compounds without any hit were thinned out: in the full panel of roughly 83,000, 20% have a hit.
Quick reminder: number only, in %, skip the unit.

In the examples that follow, each entry is paired with its recorded growth.
CN(C)CCc1cn(C2CCC2)c2cccc(O)c12 68.1
COc1cc2cc(C(=O)N3C[C@@H](CCl)c4c3cc(OC(=O)N3CCN(C(=O)CCC(=O)N5CCN(C)CC5)[C@@H]5CSSC[C@@H]53)c3ccccc43)[nH]c2c(OC)c1OC -81.3
CC(C)C[C@H](NC(=O)CNC(=O)C[C@H]1O[C@@H]2OC3(C)CC[C@H]4[C@H](C)CC[C@@H]([C@H]1C)[C@@]24OO3)B(O)O -83.5

Q) State, for BT-549 breast, measured growth of the compound listed here: "C=CCN=C([Se])NC(=O)c1ccc2c(c1)OCO2"
A) 104

Q) State, for BT-549 breast, measured growth of the compound listed here: "CC[C@]12C=CCN3CC[C@@]4(c5ccc(OC)cc5N(C)[C@H]4[C@@](O)(C(=O)OC)[C@@H]1OC(=O)CCC[P+](C1CCCCC1)(C1CCCCC1)C1CCCCC1)[C@@H]32"
A) -97.4

Q) State, for BT-549 breast, measured growth of the compound listed here: "COP(=O)(CC(F)(F)C(F)(F)F)OC"
A) 37.3

Q) State, for BT-549 breast, measured growth of the compound listed here: "CC(C)N=C([Se])NC(=O)c1ccccc1"
A) 40.6

Q) State, for BT-549 breast, measured growth of the compound listed here: "O=C(/C=C/c1ccccc1)c1nc2ccccc2n1Cc1ccc(Br)cc1"
A) -69.8

Q) State, for BT-549 breast, measured growth of the compound listed here: "CC1=C2C(=C[C@@](C)(COP(=O)(Oc3ccccc3)Oc3ccccc3)[C@@H]2O)C(=O)[C@@](C)(O)C12CC2"
A) -2.47

Q) State, for BT-549 breast, measured growth of the compound listed here: "COc1cc2cc(C(=O)N3C[C@@H](CCl)c4c3cc(OC(=O)N3CCN(C)[C@@H]5CSSC[C@@H]53)c3ccccc43)[nH]c2c(OC)c1OC"
A) -82.6

Q) State, for BT-549 breast, measured growth of the compound listed here: "C[C@H]1[C@H](OC(=O)CCC(=O)Nc2cnccn2)O[C@@H]2OC3(C)CC[C@H]4[C@H](C)CC[C@@H]1[C@@]24OO3"
A) 24

Q) State, for BT-549 breast, measured growth of the compound listed here: "O=C(/C=C/c1ccco1)c1nc2ccccc2n1Cc1ccc(Br)cc1"
A) 6.02

---

test system: HL-60(TB) leukemia; experiment: NCI-60 one-dose screen, 48 h (100 = growth as untreated, 0 = no growth, -100 = all killed); details: 10 µM unless noted
About 83,000 compounds went through this panel and 20% of them were active in at least one assay; those are over-represented in the sample as a whole.
reported-metric: growth (%)
Quick reminder: number only, in %, skip the unit.

In the examples that follow, each entry is paired with its recorded growth.
molecule	reported-metric	reported
Fc1ccc(Nc2nnc(-c3c[nH]c4ccccc34)o2)cc1	growth	44.8
COc1cc(/C=C/C(=O)c2cc(OC)c(OC)c(OC)c2)ccc1Oc1nc(Nc2ccc(F)cc2)nc(N(C)C)n1	growth	-7.15
CCOC(=O)c1ccc(NC(=S)NC(=O)c2cccc(NC(=O)c3ccc(C)cc3)c2)cc1	growth	102
COc1cc(/C=C/C(=O)c2cnn(-c3cc(=O)[nH]c4ccc(Br)cc34)c2C)cc(OC)c1OC	growth	-19.6
COc1ccc(/C(C)=N/N=C2C(=O)N(C)c3ccc(Br)cc32)cc1S(N)(=O)=O	growth	99
Nc1nn2c(-c3cc4ccccc4oc3=O)ccnc2c1N=Nc1ccccc1	growth	108

Please find the next molecule below.
Q) Complete the entry with growth for "Cn1cc(-c2cc(N)n3nc(-c4cn(C)c5ccccc45)cc3n2)c2cc(Br)ccc21"
A) -32.3

# credit: PubChem BioAssay (NCI)
